Reference source: patent US20180057596A1

Record form. Attribute: IC50 (pM), IL-13 induced TF-1 cell proliferation. Fill in for each entry.
- Experimental System: T1, human IL-4Rα on TF-1 cells (human, UniProt P24394 26-825)
- T1 sequence (looked up): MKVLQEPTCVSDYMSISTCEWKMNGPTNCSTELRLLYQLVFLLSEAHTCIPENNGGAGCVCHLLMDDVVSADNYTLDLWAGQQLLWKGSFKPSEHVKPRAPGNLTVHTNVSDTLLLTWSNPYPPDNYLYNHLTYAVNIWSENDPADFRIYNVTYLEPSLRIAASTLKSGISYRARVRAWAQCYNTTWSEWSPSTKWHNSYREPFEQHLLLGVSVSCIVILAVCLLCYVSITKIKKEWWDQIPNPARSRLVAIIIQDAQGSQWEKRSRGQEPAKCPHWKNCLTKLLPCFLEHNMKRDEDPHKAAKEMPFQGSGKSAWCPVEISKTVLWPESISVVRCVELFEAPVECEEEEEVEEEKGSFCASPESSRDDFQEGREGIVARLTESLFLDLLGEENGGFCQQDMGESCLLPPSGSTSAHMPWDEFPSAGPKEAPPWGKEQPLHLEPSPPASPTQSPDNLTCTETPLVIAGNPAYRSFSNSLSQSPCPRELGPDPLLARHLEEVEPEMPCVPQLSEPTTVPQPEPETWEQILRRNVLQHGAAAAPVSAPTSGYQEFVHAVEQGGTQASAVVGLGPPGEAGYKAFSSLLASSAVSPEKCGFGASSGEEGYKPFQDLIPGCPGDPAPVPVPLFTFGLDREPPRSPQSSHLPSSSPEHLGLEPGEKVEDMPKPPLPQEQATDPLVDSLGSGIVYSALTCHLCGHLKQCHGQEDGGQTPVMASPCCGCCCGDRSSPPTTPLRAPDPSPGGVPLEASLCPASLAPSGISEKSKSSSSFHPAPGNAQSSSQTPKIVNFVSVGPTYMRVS
- Protocol: cell-based or functional assay
One number for each entry, in pM.

Binder	Endpoint Value
Antibody 19 IgG (antibody, V domains shown) VH: QVQLVQSGAEVKKPGASVKVSCKASGYAFTSYYMHWARQAPGQGLEWMGIINPSGGSTSYAQKFQGRVTMTRDTSTSTVYMELSSLRSEDTAVYYCARGKWWWQHWGKGTLVTVSS VL: QSVLTQPPSVSAAPGQKVTISCSGGSSNIGNSYVSWYQQLPGTAPKLLIYDNNKRPSGIPDRFSGSKSGTSATLAITGLQTGDEADYYCGTWDTSTTYHPIFGTGTKLTVL	22.4
Antibody 9 IgG (antibody, V domains shown) VH: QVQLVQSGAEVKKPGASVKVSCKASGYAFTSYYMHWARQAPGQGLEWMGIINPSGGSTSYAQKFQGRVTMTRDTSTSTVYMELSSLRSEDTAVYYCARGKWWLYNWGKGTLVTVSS VL: QSVLTQPPSVSAAPGQKVTISCSGGSSNIGNSYVSWYQQLPGTAPKLLIYDNNKRPSGIPDRFSGSKSGTSATLAITGLQTGDEADYYCGTWDTSTTMYPLFGTGTKLTVL	20.4

Record IC50 (pM), IL-13 induced TF-1 cell proliferation per entry; entries follow.
1. Antibody 25 IgG (antibody, V domains shown) VH: QVQLVQSGAEVKKPGASVKVSCKASGYAFTSYYMHWARQAPGQGLEWMGIINPRGGSASYAQKFQGRVSMTRDTSTSTVYMELSSLRSEDTAVYYCARGKYWMYDWGKGTLVTVSS VL: QSVLTQPPSVSAAPGQKVTISCSGGSSNIGNSYVSWYQQLPGTAPKLLIYDNNKRPSGIPDRFSGSKSGTTATLAITGLQTGDEADYYCGTWVTSTVWEWPFGTGTKLTVL
2. Antibody 10 IgG (antibody, V domains shown) VH: QVQLVQSGAEVKKPGASVKVSCKASGYAFTSYYMHWARQAPGQGLEWMGIINPSGGSTSYAQKFQGRVTMTRDTSTSTVYMELSSLRSEDTAVYYCARGKWWLYDWGKGTLVTVSS VL: QSVLTQPPSVSAAPGQKVTISCSGGSSNIGNSYVSWYQQLPGTAPKLLIYDNNKRPSGIPDRFSGSKSGTSATLAITGLQTGDEADYYCGTWDTSTVLTPIFGTGTKLTVL

Result:
1: 23.2; 2: 25.4

Task: Using the record for Antibody 14 IgG (antibody, V domains shown) VH: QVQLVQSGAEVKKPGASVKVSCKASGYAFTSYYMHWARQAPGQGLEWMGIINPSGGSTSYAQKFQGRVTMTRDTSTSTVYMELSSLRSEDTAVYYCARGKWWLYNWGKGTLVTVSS VL: QSVLTQPPSVSAAPGQKVTISCSGGSSNIGNSYVSWYQQLPGTAPKLLIYDNNKRPSGIPDRFSGSKSGTSATLAITGLQTGDEADYYCGTWDTSPPTKPLFGTGTKLTVL , report its IC50 (pM), IL-13 induced TF-1 cell proliferation.
Result: 27.2
